Measured values drawn from patent US20250019377A1 for this set.

- Tested on: K-Ras G12V (Homo sapiens, UniProt P01116, G12V)
- Sequence (P01116 1-169 isoform P01116-2 G12V): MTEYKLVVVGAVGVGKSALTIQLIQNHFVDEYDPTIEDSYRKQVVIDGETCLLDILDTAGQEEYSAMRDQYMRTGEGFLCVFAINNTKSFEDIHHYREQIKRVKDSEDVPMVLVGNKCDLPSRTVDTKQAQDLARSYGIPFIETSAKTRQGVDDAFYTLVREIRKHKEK
- Experimental protocol: biochemical
Reported endpoint: IC50 (nM)

Q) Tell me measured IC50 for Oc1cc(-c2ncc3c(N4CCCOCC4)nc(OC[C@@]45CCCN4C[C@H](F)C5)nc3c2F)c2c(F)c(F)ccc2c1 please.
A) 124

1: C#Cc1c(F)ccc2cc(O)cc(-c3ncc4c(N5CC6COC(C6)C5)nc(OC[C@@]56CCCN5C[C@H](F)C6)nc4c3F)c12 (single isomer, unassigned) [Compound 84A]
2: C#Cc1c(F)ccc2cc(O)cc(-c3ncc4c(N5CC(F)(F)COCC5C)nc(OC[C@@]56CCCN5C[C@H](F)C6)nc4c3F)c12 (some centres unmarked)
3: C#Cc1c(F)ccc2cc(O)cc(-c3ncc4c(N5CCCOCC5C)nc(OC[C@@]56CCCN5C[C@H](F)C6)nc4c3F)c12 (mixture of isomers)
4: C#Cc1c(F)ccc2cc(O)cc(-c3nc(OC4CC4)c4c(N5CCCOCC5)nc(OC[C@@]56CCCN5C[C@H](F)C6)nc4c3F)c12
Q) Sort low-to-high on IC50, please. Please reply with the labels ordered as requested. Many thanks.
A) 4, 3, 2, 1

###

- Tested on: K-Ras WT (Homo sapiens, UniProt P01116)
- Sequence (P01116 1-169 isoform P01116-2): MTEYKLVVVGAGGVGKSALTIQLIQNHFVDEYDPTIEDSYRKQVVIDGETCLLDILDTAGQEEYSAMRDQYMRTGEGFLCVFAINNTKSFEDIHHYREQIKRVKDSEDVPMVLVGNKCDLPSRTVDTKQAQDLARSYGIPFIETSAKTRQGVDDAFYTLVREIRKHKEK
- Experimental protocol: SOS1 catalyzed nucleotide exchange assay (GDP form K-Ras), K-Ras WT
- Run parameters: read-out: K-Ras WT GDP Biochemical Activity (IC50)
Reported endpoint: IC50 (nM)

a: C#Cc1c(F)ccc2cc(O)cc(-c3ncc4c(N5CCCO[C@@H](C)C5)nc(OC[C@@]56CCCN5C[C@H](F)C6)nc4c3F)c12 (single isomer, unassigned)
b: C#Cc1c(F)ccc2cc(O)cc(-c3ncc4c(N5CCCOCC5)nc(OCC5CNCCN5C)nc4c3F)c12 (stereo not drawn)
c: C#Cc1c(F)ccc2cc(O)cc(-c3ncc4c(N5CC(C)COCC5C)nc(OC[C@@]56CCCN5C[C@H](F)C6)nc4c3F)c12 (stereo partly drawn)
Q) // sort entries: IC50, high to low Please reply with the labels ordered as requested. Many thanks.
A) b, c, a

###

- Tested on: K-Ras G12C (Homo sapiens, UniProt P01116, G12C)
- Sequence (P01116 1-169 isoform P01116-2 G12C): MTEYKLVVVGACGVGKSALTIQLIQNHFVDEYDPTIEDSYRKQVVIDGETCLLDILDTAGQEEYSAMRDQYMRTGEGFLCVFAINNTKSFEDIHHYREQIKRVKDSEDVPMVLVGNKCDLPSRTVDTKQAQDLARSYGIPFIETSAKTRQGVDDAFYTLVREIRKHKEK
- Experimental protocol: GTP-K-Ras and cRAF interaction assay (GppNp-K-Ras), K-Ras G12C
- Run parameters: read-out: K-Ras G12C GppNp Biochemical Activity (IC50)
Reported endpoint: IC50 (nM)
Numbers only; they are read as nM.

Q) Tell me measured IC50 for C#Cc1c(F)ccc2cc(O)cc(-c3c(Cl)cc4c(N5CCCOCC5)nc(OC[C@@]56CCCN5C[C@H](F)C6)nc4c3F)c12 (atropisomer, axis not shown; (M)) [Compound 19B] please.
A) 302

Then there is this compound:
Q) Tell me measured IC50 for C#Cc1c(F)ccc2cc(O)cc(-c3ncc4c(N5CCCOC[C@H]5C)nc(OC[C@@]56CCCN5C[C@H](F)C6)nc4c3F)c12 (single isomer, unassigned) [Compound 16B] please.
A) 58.3

###

- Tested on: K-Ras G13D (Homo sapiens, UniProt P01116, G13D)
- Sequence (P01116 1-169 isoform P01116-2 G13D): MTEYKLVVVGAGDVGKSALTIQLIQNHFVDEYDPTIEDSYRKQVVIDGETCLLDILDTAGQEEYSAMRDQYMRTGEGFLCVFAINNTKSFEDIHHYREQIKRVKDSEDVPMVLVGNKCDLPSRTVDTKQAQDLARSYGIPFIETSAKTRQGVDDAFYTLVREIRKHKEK
- Experimental protocol: biochemical
pIC50: −log10 of the molar value.
Reported endpoint: pIC50

I: C#Cc1c(F)ccc2cc(O)cc(-c3ncc4c(N5CCOC[C@@H](OC)C5)nc(OC[C@@]56CCCN5C[C@H](F)C6)nc4c3F)c12 (single isomer, unassigned) [Compound 49A]
II: C#Cc1c(F)ccc2cc(O)cc(-c3ncc4c(N5CCCOCC5)nc(OCC5CNCCN5C)nc4c3F)c12 (centres unmarked)
Q) Pick one, I or II : lowest reported pIC50. Write down the label attached to your selection.
A) II
(II: 6.94, I: 7.61)

###

Entries below carry reported IC50 on K-Ras G12D (Homo sapiens, UniProt P01116, G12D).
Sequence (P01116 1-169 isoform P01116-2 G12D): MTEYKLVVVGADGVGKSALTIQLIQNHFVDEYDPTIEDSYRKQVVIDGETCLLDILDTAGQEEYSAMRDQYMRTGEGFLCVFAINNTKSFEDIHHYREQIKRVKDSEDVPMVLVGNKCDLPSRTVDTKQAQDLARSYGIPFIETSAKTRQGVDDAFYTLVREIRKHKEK
Reported endpoint: IC50 (nM)

Q) Tell me measured IC50 for C#Cc1c(F)ccc2cc(O)cc(-c3ncc4c(N5CCCOC[C@H]5C)nc(OC[C@@]56CCCN5C[C@H](F)C6)nc4c3F)c12 (single isomer, unassigned) [Compound 16B] please.
A) 0.576

Q) Tell me measured IC50 for C#Cc1c(F)ccc2cc(O)cc(-c3c(Cl)cc4c(N5CCCOCC5)nc(OC[C@@]56CCCN5C[C@H](F)C6)nc4c3F)c12 (atropisomer, axis not shown; (M)) [Compound 19B] please.
A) 5.62

1: C#Cc1c(F)ccc2cc(O)cc(-c3ncc4c(N5CCOC[C@H](CC#N)C5)nc(OC[C@@]56CCCN5C[C@H](F)C6)nc4c3F)c12 (single isomer, unassigned) [Compound 14B]
2: C#Cc1c(F)ccc2cc(O)cc(-c3ncc4c(N5CCCOC[C@@H]5C)nc(OC[C@@]56CCCN5C[C@H](F)C6)nc4c3F)c12 (single isomer, unassigned) [Compound 16A]
Q) For this pair, 1 and 2 , which shows a numerically higher IC50? Write down the label attached to your selection.
A) 2
(2: 3.78 nM, 1: 0.739 nM)

###

- Tested on: K-Ras WT (Homo sapiens, UniProt P01116)
- Experimental protocol: biochemical
Reported endpoint: IC50 (nM)

A: C#Cc1c(F)ccc2cc(O)cc(-c3ncc4c(N5CCOC[C@H](OC)C5)nc(OC[C@@]56CCCN5C[C@H](F)C6)nc4c3F)c12 (single isomer, unassigned) [Compound 49B]
B: C#Cc1c(F)ccc2cc(O)cc(-c3ncc4c(N5CCCOCC5)nc(OCC56CCCN5CC(C)(F)C6)nc4c3F)c12 (stereo not drawn) [Compound 10]
Q) For this pair, A and B , which shows a numerically higher IC50? Write down the label attached to your selection.
A) A

###

- System: AsPC-1 cells (K-Ras G12D)
- Experimental protocol: 2D cell growth inhibition assay, AsPC-1
- Format: cell-based
- Run parameters: Homo sapiens, ASPC1, 144 h, AsPC-1, K-Ras G12D, 6 days, absolute IC50
Reported endpoint: IC50 (nM)

1: C#Cc1c(F)ccc2cc(O)cc(-c3ncc4c(N5CCOCC(F)(F)C5)nc(OC[C@@]56CCCN5C[C@H](F)C6)nc4c3F)c12
2: C#Cc1c(F)ccc2cc(O)cc(-c3ncc4c(N5CCCOCC5)nc(OCC56CCCN5C[C@@](C)(F)C6)nc4c3F)c12 (single isomer, unassigned) [Compound 32A]
3: C#Cc1c(F)ccc2cc(O)cc(-c3ncc4c(N5CCOC[C@H](CC#N)C5)nc(OC[C@@]56CCCN5C[C@H](F)C6)nc4c3F)c12 (single isomer, unassigned) [Compound 14B]
Q) Lab note: arrange the 3 compounds above from lowest to highest IC50. Please reply with the labels ordered as requested. Many thanks.
A) 1, 2, 3
(1: 95.7 nM, 2: 150 nM, 3: 708 nM)

###

- Tested on: AsPC-1 cells (K-Ras G12D)
- Experimental protocol: 2D cell growth inhibition assay, AsPC-1
- Format: cell-based
- Run parameters: Homo sapiens, ASPC1, 144 h, AsPC-1, K-Ras G12D, 6 days, absolute IC50
Reported endpoint: IC50 (nM)

Q) Tell me measured IC50 for C#Cc1c(F)ccc2c(F)c(O)cc(-c3ncc4c(N5CCCOCC5)nc(OC[C@@]56CCCN5C[C@H](F)C6)nc4c3F)c12 please.
A) 885

P: C#Cc1c(F)ccc2cc(O)cc(-c3nc(SC)c4c(N5CCCOCC5)nc(OC[C@@]56CCCN5C[C@H](F)C6)nc4c3F)c12
Q: C#Cc1c(F)ccc2cc(O)cc(-c3nc(C)c4c(N5CCCOCC5)nc(OC[C@@]56CCCN5C[C@H](F)C6)nc4c3F)c12
Q) Pick one, P or Q : lowest reported IC50. Write down the label attached to your selection.
A) P

###

- Tested on: K-Ras G12V (Homo sapiens, UniProt P01116, G12V)
- Experimental protocol: GTP-K-Ras and cRAF interaction assay (GppNp-K-Ras), K-Ras G12V
- Run parameters: read-out: K-Ras G12V GppNp Biochemical Activity (IC50)
Reported endpoint: IC50 (nM)

Q) Determine reported IC50 for C#Cc1c(F)ccc2cc(O)cc(-c3c(Cl)cc4c(N5CCCOCC5)nc(OC[C@@]56CCCN5C[C@H](F)C6)nc4c3F)c12 (atropisomer, axis not shown; (M)) [Compound 19B] ; test system: K-Ras G12V (Homo sapiens, UniProt P01116, G12V).
A) 136

P: C#Cc1c(F)ccc2cc(O)cc(-c3ncc4c(N5CCCOC[C@@H]5C)nc(OC[C@@]56CCCN5C[C@H](F)C6)nc4c3F)c12 (single isomer, unassigned) [Compound 16A]
Q: C#Cc1c(F)ccc2cc(O)cc(-c3ncc4c(N5CCOC[C@H](CC#N)C5)nc(OC[C@@]56CCCN5C[C@H](F)C6)nc4c3F)c12 (single isomer, unassigned) [Compound 14B]
R: C#Cc1c(F)ccc2cc(O)cc(-c3ncc4c(N5CCCOC[C@H]5C)nc(OC[C@@]56CCCN5C[C@H](F)C6)nc4c3F)c12 (single isomer, unassigned) [Compound 16B]
Q) Sort low-to-high on IC50, please. Please reply with the labels ordered as requested. Many thanks.
A) R, Q, P
